So I've got a bunch of substances here, and I need their IC50 values.
system: UM-UC-5 urothelial bladder cancer cell lines; assay: tissue or blood; format: cell-based; settings: 48 h

Ac-CLLIILRRRIRKQAHAHSK-NH2 [CPP4] | > 100 µM

Next substance, IC50 to be filled in.
Q: Reported IC50, substance H-RLWWWWRRR-NH2 [CAMP3] : ____
Result: > 100 µM
